observed.property: pKi
Please keep in mind that pKi is minus log10 of the molar concentration; only the number is needed.

Query the reported pKi for UniProtKB P35462; item: CCCN(CCC)[C@@H]1CCc2c(OC)cccc2[C@@H]1C
Sequence (P35462 whole entry): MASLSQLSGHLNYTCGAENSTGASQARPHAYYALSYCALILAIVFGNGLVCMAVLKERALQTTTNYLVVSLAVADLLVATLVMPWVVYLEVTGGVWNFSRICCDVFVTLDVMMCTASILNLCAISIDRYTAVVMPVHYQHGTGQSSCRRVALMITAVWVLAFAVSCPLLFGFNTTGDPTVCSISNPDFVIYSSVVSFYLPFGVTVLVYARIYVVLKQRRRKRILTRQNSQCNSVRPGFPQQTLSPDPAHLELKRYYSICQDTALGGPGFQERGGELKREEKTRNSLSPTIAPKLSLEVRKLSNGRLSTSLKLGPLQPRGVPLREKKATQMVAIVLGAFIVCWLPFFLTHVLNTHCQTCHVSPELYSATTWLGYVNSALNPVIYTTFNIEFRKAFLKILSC
8.40

Query the reported pKi for UniProtKB P35462; item: CCCN1CCCC(c2cccc(C#N)c2)C1 (single isomer, unassigned; (-))
6.60

Query the reported pKi for UniProtKB P35462; item: CCCN[C@@H]1CCc2c(OC)cccc2[C@@H]1C
7.59

###

Target: D(2) dopamine receptor (Bos taurus, UniProt P20288)
Sequence (P20288 whole entry): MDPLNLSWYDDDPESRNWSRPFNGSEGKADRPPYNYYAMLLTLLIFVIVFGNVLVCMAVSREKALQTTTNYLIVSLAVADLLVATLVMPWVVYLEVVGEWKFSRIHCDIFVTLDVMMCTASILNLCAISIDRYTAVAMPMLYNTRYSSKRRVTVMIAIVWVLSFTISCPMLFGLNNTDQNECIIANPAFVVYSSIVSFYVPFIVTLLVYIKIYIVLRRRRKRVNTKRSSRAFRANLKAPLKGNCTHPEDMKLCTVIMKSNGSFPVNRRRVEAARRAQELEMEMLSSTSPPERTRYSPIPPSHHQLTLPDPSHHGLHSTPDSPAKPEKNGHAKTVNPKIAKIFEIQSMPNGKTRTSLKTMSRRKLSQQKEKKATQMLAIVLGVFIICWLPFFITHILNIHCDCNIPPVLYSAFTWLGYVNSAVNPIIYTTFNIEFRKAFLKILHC
Assay: Evaluated for binding towards Dopamine receptor D2 using [3H]-spiperone as radioligand, in cloned mammalian receptors expressed in CHO-K1 cells
Type: cell-based
Please provide measured pKi for the entries that follow.
Please keep in mind that pKi is minus log10 of the molar concentration; only the number is needed.

Dear colleague, I am looking for the recorded pKi of the following compound: CCCN1CCCC(c2cccc(O)c2)C1 (single isomer, unassigned; (+))
6.11

Dear colleague, I am looking for the recorded pKi of the following compound: CCCN[C@@H]1CCc2c(OC)cccc2[C@@H]1C
6.80

Dear colleague, I am looking for the recorded pKi of the following compound: CCCN1CCCC(c2cccc(O)c2)C1 (single isomer, unassigned; (-))
6.86

Dear colleague, I am looking for the recorded pKi of the following compound: CCCN(CCC)[C@@H]1CCc2c(OC)cccc2[C@@H]1C
7.74

Dear colleague, I am looking for the recorded pKi of the following compound: CCCN1CCCC(c2cccc(C#N)c2)C1 (single isomer, unassigned; (-))
6.05
